Measurement Target: Alpha-2A adrenergic receptor (Homo sapiens, UniProt P08913); note: assay procedure not described here
Sequence (P08913 whole entry): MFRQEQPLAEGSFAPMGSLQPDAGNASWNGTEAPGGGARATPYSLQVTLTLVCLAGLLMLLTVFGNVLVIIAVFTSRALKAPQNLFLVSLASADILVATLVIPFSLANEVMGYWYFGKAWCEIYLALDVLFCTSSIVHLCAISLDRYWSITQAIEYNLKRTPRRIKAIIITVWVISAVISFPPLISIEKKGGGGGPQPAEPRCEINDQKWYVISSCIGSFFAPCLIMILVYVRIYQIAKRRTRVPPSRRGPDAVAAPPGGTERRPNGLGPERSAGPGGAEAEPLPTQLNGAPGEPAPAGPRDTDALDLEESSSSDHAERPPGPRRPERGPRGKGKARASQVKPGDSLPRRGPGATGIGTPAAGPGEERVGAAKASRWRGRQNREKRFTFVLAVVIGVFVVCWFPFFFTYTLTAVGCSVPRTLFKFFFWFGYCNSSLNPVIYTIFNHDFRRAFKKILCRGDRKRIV
Type: functional, cell-based

# Compound, AC50
records = [
    ("Clc1ccc(COC(Cn2ccnc2)c2ccc(Cl)cc2Cl)c(Cl)c1 (centres undefined) [MICONAZOLE]", "> 10 µM"),
    ("CC(C)(C)NCC(O)COc1ccccc1C#N (centres undefined) [BUNITROLOL]", "> 30 µM"),
    ("CS(=O)(=O)NC(=O)CCC/C=C\\C[C@H]1C(=O)C[C@@H](O)[C@@H]1/C=C/[C@@H](O)COc1ccccc1 [SULPROSTONE]", "> 30 µM"),
    ("CCOC(=O)Nc1ccc(NCc2ccc(F)cc2)nc1N [FLUPIRTINE]", "> 30 µM"),
]

###

The entries below come with measured AC50 values attached.
Measurement Target: 5-hydroxytryptamine receptor 2C (Homo sapiens, UniProt P28335); note: assay procedure not described here
Sequence (P28335 whole entry): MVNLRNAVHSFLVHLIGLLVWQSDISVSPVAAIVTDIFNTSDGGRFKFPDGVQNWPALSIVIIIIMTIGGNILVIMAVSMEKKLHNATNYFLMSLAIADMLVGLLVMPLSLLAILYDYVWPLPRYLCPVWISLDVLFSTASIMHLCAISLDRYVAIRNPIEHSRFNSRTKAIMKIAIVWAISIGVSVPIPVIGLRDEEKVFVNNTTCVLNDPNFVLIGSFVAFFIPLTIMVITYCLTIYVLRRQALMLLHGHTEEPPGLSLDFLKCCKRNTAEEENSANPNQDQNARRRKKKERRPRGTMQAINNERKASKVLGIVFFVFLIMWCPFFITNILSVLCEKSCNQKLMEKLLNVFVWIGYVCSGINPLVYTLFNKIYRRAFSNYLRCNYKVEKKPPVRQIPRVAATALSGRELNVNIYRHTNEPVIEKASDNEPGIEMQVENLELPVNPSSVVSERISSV

# Compound, AC50
records = [
    ("CCC1(C)CC(=O)NC1=O (stereo not given) [ETHOSUXIMIDE]", "> 30 µM"),
    ("CCOC(=O)C1=C(C)NC(C)=C(C(=O)OC)C1c1cccc(Cl)c1Cl (stereo not given)", "> 10 µM"),
    ("N=C(N)NC(=O)Cc1c(Cl)cccc1Cl", "10 µM"),
    ("CCN(C(C)=O)c1cccc(-c2ccnc3c(C#N)cnn23)c1", "> 30 µM"),
    ("CC1=C(CC(=O)O)c2cc(F)ccc2/C1=C\\c1ccc([S+](C)[O-])cc1 (stereo not given)", "> 30 µM"),
]

###

Measurement Target: Gamma-aminobutyric acid receptor subunit alpha-1 (Rattus norvegicus, UniProt P62813); note: assay procedure not described here
Sequence (P62813 whole entry): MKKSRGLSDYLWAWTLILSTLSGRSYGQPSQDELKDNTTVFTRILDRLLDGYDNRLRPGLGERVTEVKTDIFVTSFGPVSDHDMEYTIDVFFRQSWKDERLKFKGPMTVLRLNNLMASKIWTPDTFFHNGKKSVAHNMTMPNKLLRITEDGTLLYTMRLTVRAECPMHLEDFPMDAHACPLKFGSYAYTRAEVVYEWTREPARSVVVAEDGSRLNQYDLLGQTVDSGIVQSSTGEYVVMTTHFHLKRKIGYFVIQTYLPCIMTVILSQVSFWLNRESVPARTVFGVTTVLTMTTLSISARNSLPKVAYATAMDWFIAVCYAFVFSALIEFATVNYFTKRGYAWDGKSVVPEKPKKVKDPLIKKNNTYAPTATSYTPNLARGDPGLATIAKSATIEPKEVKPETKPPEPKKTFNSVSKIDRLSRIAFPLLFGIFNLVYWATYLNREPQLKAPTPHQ
Format: functional
Where a SMILES comes first, the peptide text is derived from it.

# Molecule, AC50
records = [
    ("CC(C)C[C@H](NC(=O)[C@H](Cc1ccccc1)NC(=O)c1cnccn1)B(O)O [BORTEZOMIB]", "> 30 µM"),
    ("CC(C)(C)NCC(O)COc1cccc2c1CC(O)C(O)C2 (configuration not stated) [NADOLOL]", "> 10 µM"),
    ("Cc1ccc(O)c([C@H](CCN(C(C)C)C(C)C)c2ccccc2)c1 [TOLTERODINE]", "> 10 µM"),
    ("COc1ccc(C(=O)c2ccccc2)c(O)c1 [OXYBENZONE]", "> 30 µM"),
    ("CNC1(C)C2CCC(C2)C1(C)C (configuration not stated) [MECAMYLAMINE]", "> 10 µM"),
    ("COC(=O)[C@H]1[C@H]2C[C@@H]3c4[nH]c5ccccc5c4CCN3C[C@H]2C[C@@H](OC(=O)c2cc(OC)c(OC)c(OC)c2)[C@@H]1OC [DESERPIDINE]", "> 10 µM"),
    ("C=C(c1ccccc1OCc1cccc(Cl)c1)n1ccnc1 [CROCONAZOLE]", "> 10 µM"),
    ("CN(C)CCC=C1c2ccccc2CCc2ccccc21 [AMITRIPTYLINE]", "> 10 µM"),
    ("C[C@H](N)C(=O)N[C@@H](CCC(N)=O)C(=O)O [ALANYL GLUTAMINE] (H-Ala-Gln-OH)", "> 30 µM"),
    ("CCC(=O)O[C@H](CC(=O)O)C[N+](C)(C)C [LEVOCARNITINE PROPIONATE]", "> 30 µM"),
    ("CC(=O)[C@@]1(O)CC[C@H]2[C@@H]3C[C@H](C)C4=CC(=O)C=C[C@]4(C)[C@@]3(F)[C@@H](O)C[C@@]21C [FLUOROMETHOLONE]", "> 10 µM"),
    ("CC[N+](CC)(CCNC(=O)C(=O)NCC[N+](CC)(CC)Cc1ccccc1Cl)Cc1ccccc1Cl [AMBENONIUM]", "> 30 µM"),
    ("CCNC(=O)CCC/C=C\\C[C@@H]1[C@@H](/C=C/[C@@H](O)CCc2ccccc2)[C@H](O)C[C@@H]1O [BIMATOPROST]", "> 30 µM"),
    ("COc1ccc2c3c1O[C@H]1C(=O)CC[C@H]4[C@@H](C2)N(C)CC[C@]314 [HYDROCODONE]", "> 10 µM"),
    ("COC(=O)CCc1ccc(OCC(O)CNC(C)C)cc1 (configuration not stated) [ESMOLOL]", "> 30 µM"),
    ("CCOC(=O)O[C@]1(C(=O)COC(=O)CC)CC[C@H]2[C@@H]3CCC4=CC(=O)C=C[C@]4(C)[C@H]3[C@@H](O)C[C@@]21C [PREDNICARBATE]", "> 10 µM"),
    ("CC(=O)Oc1cccc2c1C(=O)c1c(OC(C)=O)cc(C(=O)O)cc1C2=O [DIACEREIN]", "> 30 µM"),
]

###

Each entry below carries its measured AC50, system: UniProt:P35348.
Sequence (P35348 whole entry): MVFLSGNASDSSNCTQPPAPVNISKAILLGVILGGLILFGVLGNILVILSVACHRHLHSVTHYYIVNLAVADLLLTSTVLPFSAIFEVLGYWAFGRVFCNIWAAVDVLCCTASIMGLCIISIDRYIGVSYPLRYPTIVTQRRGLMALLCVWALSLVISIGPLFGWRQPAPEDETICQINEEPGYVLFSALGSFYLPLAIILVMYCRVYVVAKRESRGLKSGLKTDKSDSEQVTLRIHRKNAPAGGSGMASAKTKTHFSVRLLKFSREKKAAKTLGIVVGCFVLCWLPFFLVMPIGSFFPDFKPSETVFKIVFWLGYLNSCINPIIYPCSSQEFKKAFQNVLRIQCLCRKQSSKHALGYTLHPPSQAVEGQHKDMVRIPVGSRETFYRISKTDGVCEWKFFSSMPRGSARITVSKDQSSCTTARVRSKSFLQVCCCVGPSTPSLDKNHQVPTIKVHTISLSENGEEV
Measure Name: AC50

# Compound, Measure Name, Recorded Result
data = [
    ("Oc1cc(O)c2c(c1)O[C@H](c1ccc(O)c(O)c1)[C@@H](O)C2 [CIANIDANOL]", "AC50", "> 10 µM"),
    ("Cc1nnc2n1-c1ccc(Cl)cc1C(c1ccccc1)=NC2 [ALPRAZOLAM]", "AC50", "> 10 µM"),
    ("O=C(C[S+]([O-])Cc1ccco1)NC/C=C\\COc1cc(CN2CCCCC2)ccn1 (stereo not drawn) [LAFUTIDINE]", "AC50", "> 10 µM"),
    ("CC(=O)Oc1ccccc1C(=O)O [ASPIRIN]", "AC50", "> 10 µM"),
    ("CCC(=O)[C@@]1(C)[C@H](C)C[C@H]2[C@@H]3CCC4=CC(=O)C=C[C@]4(C)[C@H]3[C@@H](O)C[C@@]21C [RIMEXOLONE]", "AC50", "> 10 µM"),
    ("CN(C)CCC=C1c2ccccc2CCc2ccccc21 [AMITRIPTYLINE]", "AC50", "0.0299 µM"),
    ("Cc1ccc(-c2ncc(Cl)cc2-c2ccc(S(C)(=O)=O)cc2)cn1 [ETORICOXIB]", "AC50", "> 10 µM"),
    ("CC(=O)[C@@]1(O)CC[C@H]2[C@@H]3C[C@H](C)C4=CC(=O)C=C[C@]4(C)[C@@]3(F)[C@@H](O)C[C@@]21C [FLUOROMETHOLONE]", "AC50", "> 10 µM"),
    ("CCOC(=O)O[C@]1(C(=O)COC(=O)CC)CC[C@H]2[C@@H]3CCC4=CC(=O)C=C[C@]4(C)[C@H]3[C@@H](O)C[C@@]21C [PREDNICARBATE]", "AC50", "> 10 µM"),
    ("COC(=O)CCc1ccc(OCC(O)CNC(C)C)cc1 (stereo not drawn) [ESMOLOL]", "AC50", "> 30 µM"),
    ("CCOC(=O)C1=C(C)NC(C)=C(C(=O)OC)C1c1cccc(Cl)c1Cl (stereo not drawn) [FELODIPINE]", "AC50", "13 µM"),
    ("O=C(c1ccccc1)c1ccc2n1CCC2C(=O)O (stereo not drawn) [KETOROLAC]", "AC50", "> 10 µM"),
    ("Clc1ccc(COC(Cn2ccnc2)c2ccc(Cl)cc2Cl)c(Cl)c1 (stereo not drawn) [MICONAZOLE]", "AC50", "> 10 µM"),
    ("CCN(C(C)=O)c1cccc(-c2ccnc3c(C#N)cnn23)c1 [ZALEPLON]", "AC50", "> 10 µM"),
    ("OCC(O)COc1ccc(Cl)cc1 (stereo not drawn)", "AC50", "> 10 µM"),
    ("COC(=O)[C@H]1[C@H]2C[C@@H]3c4[nH]c5ccccc5c4CCN3C[C@H]2C[C@@H](OC(=O)c2cc(OC)c(OC)c(OC)c2)[C@@H]1OC [DESERPIDINE]", "AC50", "> 10 µM"),
    ("CCc1ccc(C(=O)C(C)CN2CCCCC2)cc1 (stereo not drawn) [EPERISONE]", "AC50", "> 30 µM"),
    ("N=C(N)NC(=O)c1nc(Cl)c(N)nc1N [AMILORIDE]", "AC50", "2.69 µM"),
]
